Tested on: Dual specificity mitogen-activated protein kinase kinase 1 (Homo sapiens, UniProt Q02750)
Sequence (Q02750 whole entry): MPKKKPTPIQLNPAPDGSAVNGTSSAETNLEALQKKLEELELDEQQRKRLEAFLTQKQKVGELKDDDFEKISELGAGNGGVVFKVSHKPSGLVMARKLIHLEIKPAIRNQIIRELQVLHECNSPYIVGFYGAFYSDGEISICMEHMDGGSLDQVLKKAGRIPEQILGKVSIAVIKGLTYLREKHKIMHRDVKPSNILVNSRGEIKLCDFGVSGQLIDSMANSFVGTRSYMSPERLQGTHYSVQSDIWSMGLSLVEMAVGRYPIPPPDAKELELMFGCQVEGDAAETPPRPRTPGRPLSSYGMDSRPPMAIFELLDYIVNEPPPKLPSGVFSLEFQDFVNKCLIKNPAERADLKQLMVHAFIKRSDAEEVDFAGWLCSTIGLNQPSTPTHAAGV
Protocol text: Inhibition of MAP2K1
Property measured: IC50

Data request: If you can, please state the reported IC50 value of CC(C)(C)NS(=O)(=O)c1cncc(-c2ccn3nc(N)nc3c2)c1 .
Data returned: > 10 µM

====

Tested on: Bromodomain-containing protein 2 (Homo sapiens, UniProt P25440)
Sequence (P25440 whole entry): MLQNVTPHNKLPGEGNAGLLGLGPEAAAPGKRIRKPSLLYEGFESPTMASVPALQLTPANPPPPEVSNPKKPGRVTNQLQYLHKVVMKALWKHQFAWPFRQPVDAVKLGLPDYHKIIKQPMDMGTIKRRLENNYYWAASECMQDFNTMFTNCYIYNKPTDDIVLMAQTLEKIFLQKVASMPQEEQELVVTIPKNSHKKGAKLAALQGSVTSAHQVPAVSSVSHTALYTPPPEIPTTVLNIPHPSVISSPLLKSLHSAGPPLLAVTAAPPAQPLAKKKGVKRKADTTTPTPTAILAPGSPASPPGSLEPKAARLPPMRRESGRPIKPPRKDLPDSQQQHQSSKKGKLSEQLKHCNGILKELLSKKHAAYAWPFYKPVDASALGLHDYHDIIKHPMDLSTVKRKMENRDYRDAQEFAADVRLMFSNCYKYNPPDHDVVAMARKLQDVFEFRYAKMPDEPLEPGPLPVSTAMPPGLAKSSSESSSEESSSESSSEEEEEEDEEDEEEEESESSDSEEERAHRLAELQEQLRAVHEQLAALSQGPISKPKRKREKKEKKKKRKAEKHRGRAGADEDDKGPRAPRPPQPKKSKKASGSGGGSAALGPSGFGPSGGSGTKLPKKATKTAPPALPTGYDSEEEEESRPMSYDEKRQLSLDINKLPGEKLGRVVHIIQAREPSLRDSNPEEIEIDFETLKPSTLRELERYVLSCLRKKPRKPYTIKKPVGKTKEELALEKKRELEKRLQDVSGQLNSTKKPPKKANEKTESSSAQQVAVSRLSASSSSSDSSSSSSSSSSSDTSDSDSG
Protocol text: Inhibition of BRD2
Property measured: IC50

Data request: If you can, please state the reported IC50 value of CC(C)(C)NS(=O)(=O)c1cncc(-c2ccn3nc(N)nc3c2)c1 .
Data returned: > 10 µM

====

Tested on: Serine/threonine-protein kinase TAO1 (Homo sapiens, UniProt Q7L7X3)
Property measured: IC50

Data request: If you can, please state the reported IC50 value of CC(C)(C)NS(=O)(=O)c1cncc(-c2ccn3nc(N)nc3c2)c1 .
Data returned: > 10 µM

====

Tested on: Phosphatidylinositol 4,5-bisphosphate 3-kinase catalytic subunit alpha isoform (Homo sapiens)
Protocol text: Inhibition of PIK3Ca
Property measured: IC50

Data request: If you can, please state the reported IC50 value of CC(C)(C)NS(=O)(=O)c1cncc(-c2ccn3nc(N)nc3c2)c1 .
Data returned: 2450 nM

====

Tested on: Calcium/calmodulin-dependent protein kinase type 1D (Homo sapiens, UniProt Q8IU85)
Sequence (Q8IU85 whole entry): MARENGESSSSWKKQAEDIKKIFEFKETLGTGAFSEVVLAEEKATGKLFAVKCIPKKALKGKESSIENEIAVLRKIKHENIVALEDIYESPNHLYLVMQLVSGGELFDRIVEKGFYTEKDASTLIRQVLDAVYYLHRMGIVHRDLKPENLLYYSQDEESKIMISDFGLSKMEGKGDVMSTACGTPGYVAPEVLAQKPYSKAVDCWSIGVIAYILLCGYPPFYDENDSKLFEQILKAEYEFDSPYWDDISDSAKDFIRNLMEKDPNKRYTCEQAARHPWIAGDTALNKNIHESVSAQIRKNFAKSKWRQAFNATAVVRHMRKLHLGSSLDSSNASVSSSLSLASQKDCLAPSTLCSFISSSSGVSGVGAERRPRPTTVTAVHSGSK
Protocol text: Inhibition of CAMK1D
Property measured: IC50

Data request: // lookup IC50 | system=Calcium/calmodulin-dependent protein kinase type 1D (Homo sapiens, UniProt Q8IU85) | key= CC(C)(C)NS(=O)(=O)c1cncc(-c2ccn3nc(N)nc3c2)c1
Data returned: > 10 µM

====

Tested on: Casein kinase II subunit alpha (Homo sapiens)
Sequence (P68400 whole entry): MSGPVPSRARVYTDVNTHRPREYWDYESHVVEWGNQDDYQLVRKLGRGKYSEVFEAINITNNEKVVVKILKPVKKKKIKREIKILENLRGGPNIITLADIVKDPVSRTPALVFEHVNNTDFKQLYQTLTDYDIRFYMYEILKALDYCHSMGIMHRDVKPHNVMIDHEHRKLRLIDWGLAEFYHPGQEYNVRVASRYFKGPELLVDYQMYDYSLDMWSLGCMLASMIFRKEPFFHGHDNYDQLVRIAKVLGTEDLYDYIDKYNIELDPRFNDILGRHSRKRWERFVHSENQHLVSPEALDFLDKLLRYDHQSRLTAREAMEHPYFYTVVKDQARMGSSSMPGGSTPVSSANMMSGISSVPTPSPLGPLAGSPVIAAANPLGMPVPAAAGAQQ
Protocol text: Inhibition of CK2a1
pIC50: −log10 of the molar value.
Property measured: pIC50

Data request: // lookup pIC50 | system=Casein kinase II subunit alpha (Homo sapiens) | key= CC(C)(C)NS(=O)(=O)c1cncc(-c2ccn3nc(N)nc3c2)c1
Data returned: < 5.00

====

Property measured: IC50

Data request: // lookup IC50 | system=Atypical kinase COQ8A, mitochondrial (Homo sapiens) | key= CC(C)(C)NS(=O)(=O)c1cncc(-c2ccn3nc(N)nc3c2)c1
Data returned: > 10 µM

====

Tested on: Phosphoinositide 3-kinase regulatory subunit 4 (Homo sapiens, UniProt Q99570)
Sequence (Q99570 whole entry): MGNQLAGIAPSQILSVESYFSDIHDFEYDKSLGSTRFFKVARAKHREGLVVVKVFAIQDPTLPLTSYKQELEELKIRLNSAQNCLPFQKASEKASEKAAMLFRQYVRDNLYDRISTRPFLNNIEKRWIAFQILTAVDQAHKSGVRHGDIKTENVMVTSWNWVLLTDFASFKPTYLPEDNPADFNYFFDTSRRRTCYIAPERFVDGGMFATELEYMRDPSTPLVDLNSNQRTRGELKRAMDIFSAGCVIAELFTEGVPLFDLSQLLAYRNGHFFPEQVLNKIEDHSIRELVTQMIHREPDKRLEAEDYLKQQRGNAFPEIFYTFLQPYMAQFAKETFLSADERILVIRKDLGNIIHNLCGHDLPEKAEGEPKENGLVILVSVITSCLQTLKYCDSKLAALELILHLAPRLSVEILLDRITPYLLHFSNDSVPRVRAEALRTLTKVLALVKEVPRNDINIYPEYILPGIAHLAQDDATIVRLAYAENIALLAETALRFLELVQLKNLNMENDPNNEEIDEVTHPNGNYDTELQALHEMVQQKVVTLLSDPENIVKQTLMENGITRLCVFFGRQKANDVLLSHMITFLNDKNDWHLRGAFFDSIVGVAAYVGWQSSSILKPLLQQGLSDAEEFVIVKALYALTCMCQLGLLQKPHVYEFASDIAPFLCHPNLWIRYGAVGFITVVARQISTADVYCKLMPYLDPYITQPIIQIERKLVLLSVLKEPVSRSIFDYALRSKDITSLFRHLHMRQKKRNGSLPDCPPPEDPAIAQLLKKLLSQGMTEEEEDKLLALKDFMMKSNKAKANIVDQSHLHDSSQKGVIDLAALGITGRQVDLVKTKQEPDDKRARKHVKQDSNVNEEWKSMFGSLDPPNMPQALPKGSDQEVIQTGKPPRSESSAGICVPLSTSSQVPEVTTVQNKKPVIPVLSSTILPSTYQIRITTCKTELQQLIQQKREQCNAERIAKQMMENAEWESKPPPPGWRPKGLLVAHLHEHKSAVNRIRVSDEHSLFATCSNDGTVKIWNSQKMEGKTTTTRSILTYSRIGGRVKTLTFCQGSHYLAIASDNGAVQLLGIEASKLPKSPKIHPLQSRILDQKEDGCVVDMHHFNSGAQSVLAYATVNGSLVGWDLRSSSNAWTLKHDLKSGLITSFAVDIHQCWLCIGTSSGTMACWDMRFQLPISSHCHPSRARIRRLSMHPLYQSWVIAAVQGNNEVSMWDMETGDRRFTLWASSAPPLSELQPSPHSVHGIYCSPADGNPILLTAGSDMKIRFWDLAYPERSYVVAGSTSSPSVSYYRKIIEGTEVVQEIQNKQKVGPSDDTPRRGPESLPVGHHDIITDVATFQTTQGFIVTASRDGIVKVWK
Protocol text: Inhibition of PIK3R4
Property measured: IC50

Data request: If you can, please state the reported IC50 value of CC(C)(C)NS(=O)(=O)c1cncc(-c2ccn3nc(N)nc3c2)c1 .
Data returned: > 10 µM

====

Tested on: Phosphatidylinositol 4,5-bisphosphate 3-kinase catalytic subunit gamma isoform (Homo sapiens, UniProt P48736)
Sequence (P48736 whole entry, canonical isoform): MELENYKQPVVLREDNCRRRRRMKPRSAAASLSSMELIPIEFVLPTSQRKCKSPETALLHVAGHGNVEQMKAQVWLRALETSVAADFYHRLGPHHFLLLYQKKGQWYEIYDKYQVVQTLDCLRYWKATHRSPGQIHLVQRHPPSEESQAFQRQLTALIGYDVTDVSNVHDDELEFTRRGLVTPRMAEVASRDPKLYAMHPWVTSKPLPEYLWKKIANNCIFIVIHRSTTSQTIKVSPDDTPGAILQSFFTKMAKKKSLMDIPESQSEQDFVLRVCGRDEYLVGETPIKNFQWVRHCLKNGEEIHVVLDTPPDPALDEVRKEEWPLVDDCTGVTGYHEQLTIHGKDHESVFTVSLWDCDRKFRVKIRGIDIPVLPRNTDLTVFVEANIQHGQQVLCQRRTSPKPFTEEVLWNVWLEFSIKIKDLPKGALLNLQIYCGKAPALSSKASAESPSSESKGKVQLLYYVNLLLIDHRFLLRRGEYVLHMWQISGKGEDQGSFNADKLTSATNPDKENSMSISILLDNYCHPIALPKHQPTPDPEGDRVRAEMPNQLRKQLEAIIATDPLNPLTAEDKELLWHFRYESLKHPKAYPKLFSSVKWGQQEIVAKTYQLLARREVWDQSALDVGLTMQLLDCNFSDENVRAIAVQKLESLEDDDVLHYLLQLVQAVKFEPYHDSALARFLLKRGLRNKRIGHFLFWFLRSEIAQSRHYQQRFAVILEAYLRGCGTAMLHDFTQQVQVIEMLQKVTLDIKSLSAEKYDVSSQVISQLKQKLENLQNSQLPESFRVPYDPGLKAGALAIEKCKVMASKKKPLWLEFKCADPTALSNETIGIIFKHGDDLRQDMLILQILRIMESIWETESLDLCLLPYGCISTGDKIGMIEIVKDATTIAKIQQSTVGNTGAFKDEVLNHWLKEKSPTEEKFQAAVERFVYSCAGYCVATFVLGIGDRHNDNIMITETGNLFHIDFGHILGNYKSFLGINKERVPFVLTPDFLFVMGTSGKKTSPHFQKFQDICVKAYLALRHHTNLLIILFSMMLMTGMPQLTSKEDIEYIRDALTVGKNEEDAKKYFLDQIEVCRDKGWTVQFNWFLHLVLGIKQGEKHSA
Protocol text: Inhibition of PIK3Cg
Property measured: pIC50
Remember, pIC50 is on a log scale: it is -log10 of the molar concentration.

Data request: If you can, please state the reported pIC50 value of CC(C)(C)NS(=O)(=O)c1cncc(-c2ccn3nc(N)nc3c2)c1 .
Data returned: 7.61

====

pIC50: −log10 of the molar value.
Property measured: pIC50

Data request: // lookup pIC50 | system=Wee1-like protein kinase (Homo sapiens, UniProt P30291) | key= CC(C)(C)NS(=O)(=O)c1cncc(-c2ccn3nc(N)nc3c2)c1
Data returned: < 5.00

====

Tested on: Activin receptor type-2A (Homo sapiens)
Sequence (P27037 whole entry): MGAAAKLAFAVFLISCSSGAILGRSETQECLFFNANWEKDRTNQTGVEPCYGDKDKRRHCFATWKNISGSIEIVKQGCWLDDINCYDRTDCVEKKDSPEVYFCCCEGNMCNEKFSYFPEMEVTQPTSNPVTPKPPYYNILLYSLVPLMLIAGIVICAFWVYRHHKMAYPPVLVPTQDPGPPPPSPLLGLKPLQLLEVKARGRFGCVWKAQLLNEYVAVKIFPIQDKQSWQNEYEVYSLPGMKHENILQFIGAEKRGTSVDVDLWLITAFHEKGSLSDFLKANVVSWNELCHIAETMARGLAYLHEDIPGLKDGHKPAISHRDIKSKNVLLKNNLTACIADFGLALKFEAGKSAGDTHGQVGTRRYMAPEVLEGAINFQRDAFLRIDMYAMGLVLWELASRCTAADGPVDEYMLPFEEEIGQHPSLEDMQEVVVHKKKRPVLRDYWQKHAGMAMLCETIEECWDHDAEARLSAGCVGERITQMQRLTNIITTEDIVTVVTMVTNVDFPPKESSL
pIC50: −log10 of the molar value.
Property measured: pIC50

Data request: // lookup pIC50 | system=Activin receptor type-2A (Homo sapiens) | key= CC(C)(C)NS(=O)(=O)c1cncc(-c2ccn3nc(N)nc3c2)c1
Data returned: < 5.00

From: ChEMBL document CHEMBL2203257
